# System: HCT-15 colon
# protocol: NCI-60 one-dose screen, 48 h (100 = growth as untreated, 0 = no growth, -100 = all killed)
# measurement conditions: 10 µM unless noted
Compounds without any hit were thinned out: in the full panel of roughly 83,000, 20% have a hit.
measured attribute: growth (%)
Numbers only, in %.

In [3]: df
Out[3]:
                                   molecule  measured_attribute  observed
0  Nc1nc(Nc2ccccc2SSc2ccccc2Nc2nc(N)nc(-c3ccccc3)n2)nc(-c2ccccc2)n1              growth      48.5
1  COc1cc2oc(-c3cccc(N)c3)cc(=O)c2c(OC)c1OC              growth       101
2    COc1ccc(C(=O)Nc2ncc(Cc3ccccc3Cl)s2)cc1              growth      9.87

Give one value of growth per listed molecule.
1. C=C1CC[C@@H]2[C@]3(C)COC(c4ccccc4)O[C@@H]3CC[C@@]2(C)[C@@H]1C/C=C1/C(=O)OC[C@H]1O (stereo partly drawn)
2. COc1ccc(-n2c(/C=C3\C(=O)Nc4ccccc43)ccc2CO)cc1

1. 65.5
2. 89.7

Please give growth, item by item, for the list that follows.
1. CC(=O)c1nnn(-c2c(C(=O)n3nc(C)cc3C)sc(=S)n2-c2ccccc2)c1C
2. CCCn1cnc2c(c1=N)C(c1ccc(OC)cc1)c1sc3c(C)cccc3c1O2 (stereo not drawn)
3. COc1cc(/C=C2\C(=O)Nc3ccccc32)ccc1OCc1ccc(F)cc1
4. NC(N)=Nc1ccc(Oc2cccc(NC(N)=Nc3ccc(I)cc3F)c2)cc1
5. COc1cc2nc(Cl)nc(Nc3cccc(C4=Nc5c(N)nc(N)nc5NC(c5ccc(Br)cc5)C4)c3)c2cc1OC (stereo not drawn)
6. C/C(=N\O)[C@H]1C[C@]23CC[C@]4(C)[C@H](CC[C@@H]5[C@@]6(C)CC/C(=N/O)C(C)(C)[C@@H]6CC[C@]54C)[C@H]2[C@H](C)C1(C)OC3
7. COc1cc(-c2nn(C(C)(C)C)cc2-c2ccnc(NCCCNS(=O)(=O)c3ccccc3)n2)ccc1Cl

1. 101
2. 14.6
3. 101
4. 86.9
5. 7.34
6. 105
7. 60.1

Report growth for each item below.
1. CC(=O)C1=C(C)NC(NN)=NC1c1cccc(Cl)c1 (stereo not drawn)
2. CCc1cccc2c3c(sc12)C(c1ccc(OC)cc1)C(C#N)=C(/N=C/c1ccc(Cl)cc1)O3 (stereo not drawn)
3. CCCCc1nc(/C=N/Nc2nc(Nc3ccccc3)nc(Nc3ccc(S(N)(=O)=O)cc3)n2)c(Cl)[nH]1
4. CCOC(=O)C1=NNC(c2ccc(Cl)cc2)C1C(=O)N1C(=S)NC(=O)C1CC(C)C (stereo not drawn)

[102, 20.2, 103, 105]

Go through the list and state growth for each entry.
1. Nc1nc(-c2cccc([N+](=O)[O-])c2)c(N=Nc2cccc([N+](=O)[O-])c2)s1
2. COc1cc(-c2nn(C(C)(C)C)cc2-c2ccnc(NCCCNS(=O)(=O)c3ccc(C)cc3)n2)ccc1Cl

[62, 80.5]

----------
# Tested on: SF-268 CNS
# protocol: NCI-60 one-dose screen, 48 h (100 = growth as untreated, 0 = no growth, -100 = all killed)
# measurement conditions: 10 µM unless noted
This is part of a sample that, as a whole, favours compounds with a hit. Of some 83,000 tested, about 20% had one in any assay.
Please respond with reported growth for every item in the list.
Numbers only, in %.

Worked cases, answers included:
                                   compound  measured_attribute  unit_name  observed
0  c1ccc(C(c2nc3ncncc3[nH]2)N2CSc3nc4ccccc4n3C2)cc1 (centres undefined)              growth          %      98.1
1  CC1(C)CC[C@]2(CN)CC[C@]3(C)C(=CC[C@@H]4[C@@]5(C)CCCNC(C)(C)[C@@H]5CC[C@]43C)[C@H]2C1              growth          %      98.6
2  C=C(C)[C@@H]1CC[C@]2(C(=O)NCCCCCN(CCC#N)CCC#N)CC[C@]3(C)[C@H](CC[C@@H]4[C@@]5(C)CCC(=O)C(C)(C)[C@@H]5CC[C@]43C)[C@@H]12              growth          %      81.5

// next entry
Query (compound): CCOC(=O)c1c(Nc2ccccc2)nn2c(-c3cccs3)ccnc12 ; field requested: growth
91.4
